The following compounds are listed with their measured max response values.
- System: HEK293
- EXPERIMENT_NOTES: Cytotoxic Profiling of Annotated Libraries Using Quantitative High-Throughput Screening (AID 1296008); also: % is scaled to controls: 0 for no effect and ±100 for the full control effect; nearly all actives have a fitted effect of over 60% in size
- CONDITION_SUMMARY: Five cell lines viability, CellTiter-Glo ATP luminescence, 48-72 h; active compounds read low
- Description: Cell-based phenotypic screening is a commonly used approach to discover biological pathways, novel drug targets, chemical probes and high-quality hit-to-lead molecules. […] A pintool (Kalypsys) was used to transfer 23 nL of compound solution to the 1536-well assay plates. […] Plates were left at room temperature for 10 min before imaging the ATP-coupled luminescence using a ViewLux microplate imager (PerkinElmer, Waltham, MA).
Results filed as inconclusive are left out.
PROPERTY_LABEL: max response (%)

* CCOc1cc(C)c(Cl)cc1S(=O)(=O)n1cnc2ccccc21 | -19.4
* CC(C)=CCC/C(C)=C/CO[C@@H]1O[C@H](CO)[C@@H](OC(=O)/C=C/c2ccc(O)cc2)[C@H](O[C@@H]2O[C@@H](C)[C@H](O)[C@@H](O)[C@H]2O)[C@H]1O | 1.83
* O=C(O)c1c(O)c(-c2ccccc2)nc2ccccc12 | -11.2
* CC1CC(O)/C=C/C(O)C(O)CC(=O)Cc2c(Cl)c(O)cc(O)c2C(=O)O1 (stereo not given) | 0.716
* CC1(C)CC[C@]2(C(=O)OC3OC(CO)C(O)C(O)C3O)CC[C@]3(C)C(=CCC4[C@@]5(C)CC[C@H](OC6OC(C(=O)O)C(O)C(OC7OC(CO)C(O)C(O)C7O)C6O)C(C)(C)C5CC[C@]43C)C2C1 (stereo not given in full) | 1.3
* C=C1C[C@]23C[C@H]1CC[C@H]2C1=C[C@H]2OC(=O)[C@@](C)([C@H]1[C@@H]3C(=O)O)[C@H]2O | 4.48
* CC1CC[C@]2(C(=O)O)CC[C@]3(C(=O)O)C(=CCC4[C@@]5(C)CC[C@H](OC6OC(C)C(O)C(OC7OC(CO)C(O)C(O)C7O)C6O)C(C)(C)C5CC[C@]43C)C2C1C (stereo not given in full) | -0.0822
* O=C(O)Cc1cn(C2OCC(O)C(O)C2O[C@@H]2O[C@H](CO)[C@@H](O)[C@H](O)[C@H]2O)c2ccccc12 (stereo not given in full) | 0.817
* CC(C)=CCC[C@](C)(O)[C@H]1CC[C@]2(C)[C@@H]1[C@H](O)CC1[C@@]3(C)CC[C@H](O)C(C)(C)[C@@H]3[C@@H](O[C@@H]3O[C@H](CO)[C@@H](O)[C@H](O)[C@H]3O[C@@H]3O[C@H](CO)[C@@H](O)[C@H](O)[C@H]3O)C[C@]12C (stereo not given in full) | -11.9
* CON(C)C(=O)[C@H](O)[C@H](Cc1ccccc1)NC(=O)c1cc2cc(Cl)ccc2[nH]1 | -8.5

The reported numbers originate from PubChem BioAssay (NCATS).
